- measurement target: T1, human GLP-1 receptor (human, UniProt P43220 24-463)
- T1 construct: whole, on cells; Used as crude membranes of stably transfected HEK293 cells; also called hGLP1R; hGLP-1R
- assay: SPA, [125I]-GLP-1 displacement, hGLP-1R membranes
Numbered stars: 1 amine (or outer) side, 2 acyl side, 3 side chain; on linkers, the order of the positions; unused ones are H or OH. Square brackets hold non-standard residues; d marks the D form. Side chains are listed from the residue outwards. Ends that are not written are not given here. * marks the point of attachment. C20 diacid = O=C(O)CCCCCCCCCCCCCCCCCCC(=O)*; γGlu = O=C(O)[C@H](CCC(=O)[*:2])N[*:1]; Desaminohistidyl = O=C(CCc1c[nH]cn1)*; αMeL = CC(C)C[C@](C)(N)C(=O)O; αMeK = C[C@](N)(CCCCN)C(=O)O; Dab = NCC[C@H](N)C(=O)O; AEEA = NCCOCCOCC(=O)O; Aib = CC(C)(N)C(=O)O
Consider the following binders; for each one, report its Ki.
Enter your answer as a number in nM; do not include the unit.

Can you share its Ki? I mean this binder: HXEGTXTSDYSIXLDEKAQXEFIEYLIEGGPSSGAPPPS (Aib2; αMeF(2F)6; αMeL13; K17((2-[2-(2-Amino-ethoxy)-ethoxy]-acetyl)2-(γ-Glu)-CO-(CH2)18-CO2H); Aib20; C-terminal NH2) [Example 163]
10.8

Can you share its Ki? I mean this binder: YXEGTXTSDYSIXLDKKAQXAFIEYLIEAGPSSGAPPPS (Aib2; αMeF6; αMeL13; K17((2-[2-(2-Amino-ethoxy)-ethoxy]-acetyl)2-(γ-Glu)-CO-(CH2)18-CO2H); Aib20; C-terminal NH2) [Example 126]
1.46

Can you share its Ki? I mean this binder: H[Aib]EGTFTSDYSI[αMeL]LDKK([Dab-AEEA-Dab-AEEA-C20 diacid])AQ[αMeK]AFIQYLLA[Aib]GPSSGAPPPS-NH2 [Example 19]
0.24

Can you share its Ki? I mean this binder: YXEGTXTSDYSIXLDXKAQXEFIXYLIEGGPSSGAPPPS (Aib2; αMeF(2F)6; αMeL13; Dab16; K17((2-[2-(2-Amino-ethoxy)-ethoxy]-acetyl)2-(γ-Glu)-CO-(CH2)16-CO2H); Aib20; D-Glu24; C-terminal NH2) [Example 209]
1.43

Can you share its Ki? I mean this binder: YXEGTXTSDYSIXLDKKAQHXFIEYLIEGGPSSGAPPPS (Aib2; αMeF6; αMeL13; K17((2-[2-(2-Amino-ethoxy)-ethoxy]-acetyl)2-(γ-Glu)-CO-(CH2)18-CO2H); Aib21; C-terminal NH2) [Example 144]
1.78

Can you share its Ki? I mean this binder: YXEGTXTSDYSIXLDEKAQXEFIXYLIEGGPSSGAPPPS (Aib2; αMeF(2F)6; αMeL13; K17((2-[2-(2-Amino-ethoxy)-ethoxy]-acetyl)2-(γ-Glu)-CO-(CH2)18-CO2H); Aib20; Aib24; C-terminal NH2) [Example 152]
48

Can you share its Ki? I mean this binder: YXEGTFTSDYSIXLDSKAQXAFIEYLIEGGPSSGAPPPS (Aib2; αMeL13; K17((2-[2-(2-Amino-ethoxy)-ethoxy]-acetyl)2-(γ-Glu)-CO-(CH2)18-CO2H); Aib20; C-terminal NH2) [Example 52]
5.81

Can you share its Ki? I mean this binder: [Desaminohistidyl][Aib]EGTFTSDYSILLDKK([AEEA-AEEA-γGlu-C20 diacid])AQ[Aib]AFIEYLIEGGPSSGAPPPS-NH2 (also: reversed amide ψ[NHCO] between residues 1 and 2) [Example 105]
0.871

Can you share its Ki? I mean this binder: YXEGTXTSDXSIXLDKKAQXEFIXYLIEGGPSSGAPPPS (Aib2; αMeF(2F)6; 4Pal10; αMeL13; K17((2-[2-(2-Amino-ethoxy)-ethoxy]-acetyl)-(γ-Glu)-(2-[2-(2-Amino-ethoxy)-ethoxy]-acetyl)-CO-(CH2)18-CO2H); Aib20; D-Glu24; C-terminal NH2) [Example 202]
5.38

Can you share its Ki? I mean this binder: YXEGTXTSDYSIXLDEKAQXEFIEYLIEGGPSSGAPPPS (Aib2; αMeF6; αMeL13; K17((2-[2-(2-Amino-ethoxy)-ethoxy]-acetyl)2-(γ-Glu)-CO-(CH2)18-CO2H); Aib20; C-terminal NH2) [Example 116]
6.8

Can you share its Ki? I mean this binder: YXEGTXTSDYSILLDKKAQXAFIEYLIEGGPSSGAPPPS (Aib2; αMeF6; K17((2-[2-(2-Amino-ethoxy)-ethoxy]-acetyl)2-(γ-Glu)-CO-(CH2)18-CO2H); Aib20; C-terminal NH2) [Example 57]
3
